molecules and their reported inhibition in vivo at 0.3 mg/kg
Test system: C57BL/6 mice
Assay: Bleomycin-induced lung fibrosis model
Type: in vivo
Conditions: Mus musculus, po, 504 h, 0.3 mg/kg orally once a day, three weeks after intratracheal bleomycin 6 mg/kg, vs solvent-administered group, read-out: Inhibitory ratio against the increment in the lung hydroxyproline amount
Quick reminder: number only, in %, skip the unit.

Here is how some molecules turned out for inhibition in vivo at 0.3 mg/kg.
1. COc1ccc(C2=NN(c3ccc(C(=O)O)cc3)C(=O)C2)cc1OC1CCCC1; 57
2. O=C1CC(c2ccc(OC(F)F)c(OC3CCCC3)c2)=NN1; 61

In one line, give reported inhibition in vivo at 0.3 mg/kg of the entry COc1ccc(C2=NN(C)C(=O)C2)cc1OC1Cc2ccccc2C1 .
75

In one line, give reported inhibition in vivo at 0.3 mg/kg of the entry COc1ccc(C2=NN(c3ccccc3)C(=O)C2)cc1OC1Cc2ccccc2C1 .
75

In one line, give reported inhibition in vivo at 0.3 mg/kg of the entry COc1ccc(C2=NN(c3ccccc3)C(=O)C2)cc1OC1CCCC1 .
52

In one line, give reported inhibition in vivo at 0.3 mg/kg of the entry COc1ccc(C2=NNC(=O)C2)cc1OCC1CC1 .
60
